// provenance: ChEMBL document CHEMBL1137206

Target: Tumour suppressor p53/oncoprotein Mdm2 (Homo sapiens, UniProt P04637+Q00987)
Sequence (P04637 whole entry): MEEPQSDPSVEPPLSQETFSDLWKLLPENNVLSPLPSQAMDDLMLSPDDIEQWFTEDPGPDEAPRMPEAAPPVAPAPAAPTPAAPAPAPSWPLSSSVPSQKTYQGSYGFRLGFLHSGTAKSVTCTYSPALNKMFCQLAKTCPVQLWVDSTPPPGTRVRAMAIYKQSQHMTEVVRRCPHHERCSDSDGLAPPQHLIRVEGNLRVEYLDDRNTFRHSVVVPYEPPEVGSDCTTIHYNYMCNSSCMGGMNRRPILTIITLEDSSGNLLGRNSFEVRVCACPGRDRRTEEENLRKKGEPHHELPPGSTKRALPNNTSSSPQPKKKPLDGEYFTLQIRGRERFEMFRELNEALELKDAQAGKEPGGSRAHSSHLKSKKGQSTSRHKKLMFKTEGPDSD
Sequence (Q00987 whole entry): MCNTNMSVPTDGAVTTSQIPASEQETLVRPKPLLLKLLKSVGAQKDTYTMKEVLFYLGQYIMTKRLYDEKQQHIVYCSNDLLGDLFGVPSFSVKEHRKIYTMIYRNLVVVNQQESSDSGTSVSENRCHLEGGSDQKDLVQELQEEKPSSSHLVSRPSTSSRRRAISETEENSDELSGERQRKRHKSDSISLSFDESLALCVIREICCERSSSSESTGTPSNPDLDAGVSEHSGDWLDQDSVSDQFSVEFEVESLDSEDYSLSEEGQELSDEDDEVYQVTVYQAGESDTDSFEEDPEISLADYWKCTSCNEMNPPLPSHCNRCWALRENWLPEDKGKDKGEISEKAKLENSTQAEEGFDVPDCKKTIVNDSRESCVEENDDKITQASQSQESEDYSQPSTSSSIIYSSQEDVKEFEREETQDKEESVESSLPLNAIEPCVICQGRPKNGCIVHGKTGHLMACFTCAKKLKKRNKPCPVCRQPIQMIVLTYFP
Assay: In vitro inhibitory concentration against p53-mdm2 interaction
Property: IC50 (µM)
Numbers only, in µM.

The reported value for CC(C)Oc1ccc(C(=O)NS(=O)(=O)c2ccc(NN=C3C(=O)N(c4ccccc4)N(c4ccccc4)C3=O)cc2)cc1 in terms of IC50 is 31.8
